Molecular target: Urease subunit alpha (Helicobacter pylori (strain J99 / ATCC 700824) (Campylobacter pylori J99), UniProt I0ZGT0+I0ZGT1)
Sequence (I0ZGT1 whole entry): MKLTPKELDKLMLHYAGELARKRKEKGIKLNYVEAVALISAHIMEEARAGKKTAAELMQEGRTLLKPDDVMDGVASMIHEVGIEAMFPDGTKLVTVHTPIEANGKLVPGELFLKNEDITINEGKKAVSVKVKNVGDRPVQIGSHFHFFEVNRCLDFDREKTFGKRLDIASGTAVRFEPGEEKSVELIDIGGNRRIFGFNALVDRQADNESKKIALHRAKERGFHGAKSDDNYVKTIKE
Sequence (I0ZGT0 whole entry): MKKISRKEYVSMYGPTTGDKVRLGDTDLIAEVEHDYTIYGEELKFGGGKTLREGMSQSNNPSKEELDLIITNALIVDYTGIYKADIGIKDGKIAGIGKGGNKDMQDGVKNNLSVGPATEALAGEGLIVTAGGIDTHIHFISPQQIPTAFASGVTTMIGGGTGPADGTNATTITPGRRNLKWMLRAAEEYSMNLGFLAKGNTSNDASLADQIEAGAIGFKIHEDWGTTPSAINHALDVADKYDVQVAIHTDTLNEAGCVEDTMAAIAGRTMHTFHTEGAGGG
Assay: Urease Inhibition Assay
Conditions: pH 7.4; 4 °C
parameter: pIC50
FYI, pIC50 means -log10 of a concentration in mol per litre.

Consider the compound shown here: CC(=O)NO [acetohydroxamic acid] What is its recorded pIC50?
4.37

----------
Molecular target: Urease subunit alpha (Helicobacter pylori (strain ATCC 700392 / 26695), UniProt P69997)
Sequence (P14916 whole entry): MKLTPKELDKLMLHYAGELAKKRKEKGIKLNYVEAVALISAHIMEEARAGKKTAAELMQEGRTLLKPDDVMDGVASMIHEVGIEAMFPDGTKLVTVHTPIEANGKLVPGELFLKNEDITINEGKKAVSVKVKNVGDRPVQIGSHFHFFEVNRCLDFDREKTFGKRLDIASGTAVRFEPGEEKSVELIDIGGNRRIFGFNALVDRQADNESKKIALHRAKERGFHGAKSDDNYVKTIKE
Sequence (P69997 whole entry): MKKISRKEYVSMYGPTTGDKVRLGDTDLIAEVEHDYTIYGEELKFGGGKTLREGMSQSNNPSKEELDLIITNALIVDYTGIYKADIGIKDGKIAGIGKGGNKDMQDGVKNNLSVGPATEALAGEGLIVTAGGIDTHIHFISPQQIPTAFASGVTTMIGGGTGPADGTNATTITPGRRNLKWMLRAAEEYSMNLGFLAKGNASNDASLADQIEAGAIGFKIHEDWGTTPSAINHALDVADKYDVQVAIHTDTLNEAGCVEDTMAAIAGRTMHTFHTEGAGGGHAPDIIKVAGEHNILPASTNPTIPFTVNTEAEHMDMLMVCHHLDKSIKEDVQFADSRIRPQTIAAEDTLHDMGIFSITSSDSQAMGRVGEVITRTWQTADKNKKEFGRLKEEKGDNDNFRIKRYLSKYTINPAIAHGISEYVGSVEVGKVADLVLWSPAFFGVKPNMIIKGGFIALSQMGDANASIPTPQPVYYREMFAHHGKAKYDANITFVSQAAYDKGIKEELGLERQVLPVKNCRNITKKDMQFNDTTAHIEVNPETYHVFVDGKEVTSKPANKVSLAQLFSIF
Test: Urease Inhibition Assay
Details: pH 7.4; 4 °C
parameter: IC50

// IC50 lookup, key: Cc1ccc(C(=O)O)cc1
> 100 µM

Turning to the following molecule.
What value of IC50 has been reported for the following molecule? NCc1ccccc1
> 100 µM
